src = ChEMBL document CHEMBL2093137

Test system: Brugia malayi
test method notes: WHO-TDR: Lymphatic Filariasis;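 also: tested at 10 µM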
Type: functional
Design: concentration or dose not given beside the values
Overview of reported % Inhibition across a group of compounds:
Write down the value, and be sure its unit follows.

Please review the following examples before continuing.
> print(dat)
                                   compound  observed.measurement
1  O=C(CCSc1ccccc1)NCCOc1ccc2nnc(-c3ccc(F)cc3)n2n1                33.33%
2  O=S(=O)(c1ccc2ccccc2c1)N1CCN(c2ccc(Nc3cccnc3)nn2)CC1                    0%
3  Cc1ccnc(Nc2ccc(NCCNS(=O)(=O)c3ccc(F)cc3)nn2)c1                   50%
4  CCc1nnc(NS(=O)(=O)c2ccc(NC(=O)c3ccc(S(=O)(=O)N4CCCCC4C)cc3)cc2)s1 (stereo not given)                    0%
5  Cc1ccnc(Nc2ccc(N3CCN(C(=O)Nc4cccc(F)c4)CC3)nn2)c1                   75%
6         COc1cccc2c1CCN(Cc1ccc(Cl)cc1)C2=O                  100%

Ask | If you can, please state the reported % Inhibition value of O=C(Nc1ccncc1)c1cccn(Cc2ccc(F)cc2)c1=O .
Reply | 0%

Ask | Which % Inhibition is listed for CC1(C)Cc2cccc(OCCCS(=O)(=O)NCc3cccs3)c2O1 ?
Reply | 20%

Ask | Quick one: % Inhibition of COc1ccc(-c2cn3c(C(=O)Nc4ccccc4F)csc3n2)cc1 ?
Reply | 0%

Ask | Query: % Inhibition; subject: CN(C)CCCN(C(=O)c1ccc(Br)s1)c1nc2ccccc2s1
Reply | 0%

----------
System: Schistosoma mansoni
test method notes: WHO-TDR: Schistosomiasis
Assay type: functional
Design: concentration or dose not given beside the values
readout type: % Inhibition (%)
Answer format: numeric, % implied, no suffix.

Field: example entries. Status: answers known.
> print(dat)
                                   compound  observed.measurement
1  CN(C)CCCN(C(=O)c1ccccc1F)c1nc2c(Cl)cccc2s1                     0
2   COC(=O)c1ccc(CSc2ccc(NC(=O)C(C)C)nn2)o1                     0
3        Cc1cc2cc(CNC(=O)c3ccccc3Br)ccc2n1C                     0

Ask | Could you share what % Inhibition was measured for Cc1cc(C(=O)Nc2nnc(-c3ccco3)o2)on1 , tested on Schistosoma mansoni?
Reply | 25

Ask | What measured % Inhibition is associated with Cc1ccnc(Nc2ccc(NCCNS(=O)(=O)c3ccc(F)cc3)nn2)c1 on Schistosoma mansoni?
Reply | 0

Ask | Notebook entry, Schistosoma mansoni assay: % Inhibition of O=C(Nc1ccc(F)cc1)Nc1cccc(-c2ccc(N3CCCC3)nn2)c1 = ?
Reply | 0

Ask | What measured % Inhibition is associated with COc1ccc(-c2ccc(=O)n(CCCNC(=O)Cc3ccc(F)cc3)n2)cc1 on Schistosoma mansoni?
Reply | 0

Ask | Report % Inhibition for O=C(CC1CCCC1)Nc1nc(CSCc2ccc(F)cc2)cs1 tested on Schistosoma mansoni.
Reply | 0

Ask | Kindly state the measured % Inhibition obtained for O=C(NCCNc1ccc(Nc2ccccn2)nn1)c1ccc(F)cc1 with Schistosoma mansoni.
Reply | 0

Ask | Record O=C(CC(c1ccccc1)c1ccccc1)NCCCn1nc(-c2ccncc2)ccc1=O : what is its % Inhibition with Schistosoma mansoni?
Reply | 0
